TARGET_OR_SYSTEM: soluble semaphorin 4D
Sequence (chain, as listed by the source): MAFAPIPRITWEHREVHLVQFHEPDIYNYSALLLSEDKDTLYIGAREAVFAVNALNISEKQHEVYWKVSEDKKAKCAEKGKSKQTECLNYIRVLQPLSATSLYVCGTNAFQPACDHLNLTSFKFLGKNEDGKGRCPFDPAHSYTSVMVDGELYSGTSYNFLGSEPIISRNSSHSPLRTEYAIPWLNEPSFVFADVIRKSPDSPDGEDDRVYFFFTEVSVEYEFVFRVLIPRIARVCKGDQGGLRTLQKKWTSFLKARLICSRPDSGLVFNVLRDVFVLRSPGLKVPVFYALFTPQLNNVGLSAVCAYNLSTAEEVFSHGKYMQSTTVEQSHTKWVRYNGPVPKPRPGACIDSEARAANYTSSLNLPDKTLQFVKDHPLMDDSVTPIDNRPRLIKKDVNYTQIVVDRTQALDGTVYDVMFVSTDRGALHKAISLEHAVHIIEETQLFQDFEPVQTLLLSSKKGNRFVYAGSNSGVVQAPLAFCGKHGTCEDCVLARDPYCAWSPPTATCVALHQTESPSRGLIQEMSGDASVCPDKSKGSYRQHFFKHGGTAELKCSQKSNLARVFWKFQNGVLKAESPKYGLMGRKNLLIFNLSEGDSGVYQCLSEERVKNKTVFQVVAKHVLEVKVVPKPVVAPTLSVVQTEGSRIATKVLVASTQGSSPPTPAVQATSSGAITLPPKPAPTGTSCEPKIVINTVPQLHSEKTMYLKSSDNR
RUN_DESCRIPTION: SPR; surface plasmon resonance imaging (SPRi) of TPs and sSema4D; who was immobilised and the conditions are not told in the main text
REPORTED_CONDITIONS: both partners purified
Please go through the items and note down their Kd.
Please give a number only; it is taken to be in nM.

Sure, the documented Kd for KNKAAKG (Limits taken by convention as the full extracellular domain after the signal peptide. Species is not printed for the assayed protein; human is assumed, mouse O09126 24-733 is the alternative. Natural) [TP-7] is 14.6

Sure, the documented Kd for KQKRPRH (Limits taken by convention as the full extracellular domain after the signal peptide. Species is not printed for the assayed protein; human is assumed, mouse O09126 24-733 is the alternative. Natural) [TP-2] is 41.7

Source listed as paper PMC9875641.
